# Study System: S1P1 receptor (Homo sapiens)
# Method Notes: S1P1 receptor internalization (endosome formation) assay in S1P1 overexpressing cell line (DiscoverX), luminescence
# Assay type: cell-based

{"columns": ["Compound", "Study System", "EC50"],
 "data": [
  ["COc1ccc(-c2ncc(-c3ccc(CN4CC(C(=O)O)C4)cc3)[se]2)cc1 [Compound 17]", "S1P1 receptor (Homo sapiens)", "81.3 nM"],
  ["CCOC(=O)C1CN(Cc2ccc(-c3cnc(-c4ccc(C(C)(C)C)cc4)[se]3)cc2)C1 [Compound 3]", "S1P1 receptor (Homo sapiens)", "116 nM"],
  ["CC(C)Oc1ccc(-c2ncc(-c3ccc(CN4CC(C(=O)O)C4)cc3)[se]2)cc1C(F)(F)F [Compound 10]", "S1P1 receptor (Homo sapiens)", "0.36 nM"],
  ["CCOc1ccc(-c2ncc(-c3ccc(CN4CC(C(=O)OC)C4)cc3)[se]2)cc1Cl [Compound 14]", "S1P1 receptor (Homo sapiens)", "4.91 nM"]
]}

###

# Study System: S1P1 receptor (Homo sapiens)
# Method Notes: S1P1 β-arrestin recruitment assay in S1P1 overexpressing cell line (DiscoverX), luminescence
# Assay type: cell-based
Parameter EC50: see the listing below.

{"columns": ["Compound", "Measurement Units", "EC50"],
 "data": [
  ["COc1ccc(-c2ncc(-c3ccc(CN4CC(C(=O)O)C4)cc3)[se]2)cc1", "nM", 25.9],
  ["COC(=O)C1CCN(Cc2ccc(-c3cnc(-c4ccc(C(C)(C)C)cc4)[se]3)cc2)C1 (centres unmarked)", "nM", 8.5],
  ["CCOC(=O)C1CN(Cc2ccc(-c3cnc(-c4ccc(OC(C)C)c(C#N)c4)[se]3)cc2)C1", "nM", 1.17],
  ["COC(=O)C1CN(Cc2ccc(-c3ncc(-c4ccc(OC(C)C)c(Cl)c4)[se]3)cc2)C1", "nM", 0.9],
  ["COC(=O)CCNCc1ccc(-c2cnc(-c3ccc(OC(C)C)c(Cl)c3)[se]2)cc1", "nM", 7.88],
  ["CCOC(=O)CNCc1ccc(-c2cnc(-c3ccc(OC(C)C)c(Cl)c3)[se]2)cc1", "nM", 21],
  ["CC(C)Oc1ccc(-c2ncc(-c3ccc(CN4CC(C(=O)OC(C)(C)C)C4)cc3)[se]2)cc1C#N", "nM", 29.9],
  ["COC(=O)C1CN(Cc2ccc(-c3cnc(-c4ccc(OC(C)C)cc4)[se]3)cc2)C1", "nM", 3.24]
]}

###

# Study System: S1P1 receptor (Homo sapiens, UniProt P21453)
# Sequence (P21453 whole entry): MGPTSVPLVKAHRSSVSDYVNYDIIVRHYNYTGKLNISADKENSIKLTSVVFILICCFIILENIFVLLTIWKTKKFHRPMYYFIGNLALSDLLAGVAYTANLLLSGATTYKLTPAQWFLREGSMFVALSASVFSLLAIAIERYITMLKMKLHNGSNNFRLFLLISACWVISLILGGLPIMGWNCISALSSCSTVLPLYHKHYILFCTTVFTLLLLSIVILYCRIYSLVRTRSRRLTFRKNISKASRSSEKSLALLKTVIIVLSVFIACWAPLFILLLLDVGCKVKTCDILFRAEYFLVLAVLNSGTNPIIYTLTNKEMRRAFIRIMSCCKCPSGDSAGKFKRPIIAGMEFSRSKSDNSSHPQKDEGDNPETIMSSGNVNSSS
# Method Notes: S1P1 receptor internalization (endosome formation) assay in S1P1 overexpressing cell line (DiscoverX), luminescence
# Type: cell-based
pEC50: −log10 of the molar value.
Observable: pEC50

{"columns": ["Structure Smiles", "Data Value"],
 "data": [
  ["CCOC(=O)C1CN(Cc2ccc(-c3cnc(-c4ccc(OC(C)C)c(C(F)(F)F)c4)[se]3)cc2)C1", 7.90],
  ["CCOC(=O)C1CN(Cc2ccc(-c3cnc(-c4ccc(OC(C)C)cc4)[se]3)cc2)C1", 6.93],
  ["COC(=O)C1CN(Cc2ccc(-c3cnc(-c4ccc(OC(C)C)c(C(F)(F)F)c4)[se]3)cc2)C1", 8.80],
  ["CC(C)Oc1cccc(-c2ncc(-c3ccc(CN4CC(C(=O)O)C4)cc3)[se]2)c1", 7.01]
]}

###

Parameter EC50: see the listing below.
# Study System: S1P1 receptor (Homo sapiens)
# Method Notes: S1P1 receptor internalization (endosome formation) assay in S1P1 overexpressing cell line (DiscoverX), luminescence
# Assay type: cell-based

{"columns": ["Compound", "EC50 / µM"],
 "data": [
  ["COC(=O)CCNCc1ccc(-c2cnc(-c3ccc(OC(C)C)c(Cl)c3)[se]2)cc1", 0.0135],
  ["CC(C)Oc1ccc(-c2ncc(-c3ccc(CN4CC(C(=O)OC(C)(C)C)C4)cc3)[se]2)cc1C#N", 0.0331],
  ["COC(=O)C1CCN(Cc2ccc(-c3cnc(-c4ccc(OC(C)C)c(Cl)c4)[se]3)cc2)C1 (centres unmarked)", 0.0119],
  ["COC(=O)C1CN(Cc2ccc(-c3cnc(-c4ccc(OC)cc4)[se]3)cc2)C1", 0.139],
  ["COC(=O)C1CN(Cc2ccc(-c3ncc(-c4ccc(OC(C)C)c(Cl)c4)[se]3)cc2)C1", 0.00952],
  ["COC(=O)C1CN(Cc2ccc(-c3cnc(-c4ccc(OC(C)C)c(C#N)c4)[se]3)cc2)C1", 0.00087],
  ["CCOC(=O)CNCc1ccc(-c2cnc(-c3ccc(OC(C)C)c(Cl)c3)[se]2)cc1", 0.0115],
  ["COC(=O)C1CCN(Cc2ccc(-c3cnc(-c4ccc(C(C)(C)C)cc4)[se]3)cc2)C1 (centres unmarked)", 0.205]
]}

###

# Study System: S1P1 receptor (Homo sapiens, UniProt P21453)
# Method Notes: S1P1 β-arrestin recruitment assay in S1P1 overexpressing cell line (DiscoverX), luminescence
# Type: cell-based
# Condition Label: S1P1 overexpressing cell line, β-arrestin recruitment, luminescence; read-out: β-arrestin EC50
pEC50: −log10 of the molar value.
Parameter pEC50: see the listing below.
Observable: pEC50

{"columns": ["Compound", "Bound Operator", "Data Value"],
 "data": [
  ["COC(=O)C1CN(Cc2ccc(-c3cnc(-c4cccc(OC(C)C)c4)[se]3)cc2)C1 [Compound 21]", "=", 6.30],
  ["O=C(O)C1CN(Cc2ccc(-c3cnc(-c4ccccn4)[se]3)cc2)C1 [Compound 27]", "<", 6.00],
  ["COC(=O)C1CN(Cc2ccc(-c3cnc(-c4ccccc4OC(C)C)[se]3)cc2)C1 [Compound 23]", "<", 6.00],
  ["CCOC(=O)C1CN(Cc2ccc(-c3cnc(-c4ccccc4OC(C)C)[se]3)cc2)C1 [Compound 25]", "=", 6.60],
  ["O=C(O)C1CN(Cc2ccc(-c3cnc(-c4cccnc4)[se]3)cc2)C1 [Compound 29]", "=", 6.20],
  ["COC(=O)C1CN(Cc2ccc(-c3cnc(-c4ccccn4)[se]3)cc2)C1 [Compound 26]", "<", 6.00],
  ["COC(=O)C1CCN(Cc2ccc(-c3cnc(-c4ccc(C(C)(C)C)cc4)[se]3)cc2)CC1 [Compound 32]", "=", 6.24],
  ["CC(C)Oc1ccccc1-c1ncc(-c2ccc(CN3CC(C(=O)O)C3)cc2)[se]1 [Compound 24]", "<", 6.00],
  ["COC(=O)C1CN(Cc2ccc(-c3cnc(-c4cccnc4)[se]3)cc2)C1 [Compound 28]", "<", 6.00]
]}

###

Parameter EC50: see the listing below.
# Study System: S1P1 receptor (Homo sapiens, UniProt P21453)
# Method Notes: S1P1 receptor internalization (endosome formation) assay in S1P1 overexpressing cell line (DiscoverX), luminescence
# Format: cell-based

{"columns": ["Structure Smiles", "Study System", "Measurement Units", "EC50"],
 "data": [
  ["COC(=O)C1CN(Cc2ccc(-c3cnc(-c4ccc(C(C)(C)C)cc4)[se]3)cc2)C1", "S1P1 receptor (Homo sapiens, UniProt P21453)", "nM", 173],
  ["COC(=O)C1CN(Cc2ccc(-c3cnc(-c4ccc(OC(C)C)c(Cl)c4)[se]3)cc2)C1", "S1P1 receptor (Homo sapiens, UniProt P21453)", "nM", 1.48],
  ["COC(=O)C1CN(Cc2ccc(-c3cnc(-c4ccc(OC(C)C)cc4)[se]3)cc2)C1", "S1P1 receptor (Homo sapiens, UniProt P21453)", "nM", 9.26],
  ["COC(=O)C1CN(Cc2ccc(-c3ncc(-c4ccc(C(C)(C)C)cc4)[se]3)cc2)C1", "S1P1 receptor (Homo sapiens, UniProt P21453)", "nM", 160],
  ["CCOC(=O)C1CN(Cc2ccc(-c3cnc(-c4ccc(OC(C)C)c(C#N)c4)[se]3)cc2)C1", "S1P1 receptor (Homo sapiens, UniProt P21453)", "nM", 4.33],
  ["CC(C)Oc1ccc(-c2ncc(-c3ccc(CN4CC(C(=O)O)C4)cc3)[se]2)cc1C#N", "S1P1 receptor (Homo sapiens, UniProt P21453)", "nM", 0.065],
  ["CC(C)Oc1ccc(-c2ncc(-c3ccc(CN4CC(C(=O)O)C4)cc3)[se]2)cc1", "S1P1 receptor (Homo sapiens, UniProt P21453)", "nM", 0.97],
  ["CC(C)(C)OC(=O)C1CN(Cc2ccc(-c3cnc(-c4ccc(C(C)(C)C)cc4)[se]3)cc2)C1", "S1P1 receptor (Homo sapiens, UniProt P21453)", "nM", 141]
]}

###

# Study System: S1P1 receptor (Homo sapiens)
# Method Notes: S1P1 β-arrestin recruitment assay in S1P1 overexpressing cell line (DiscoverX), luminescence
# Type: cell-based
pEC50: −log10 of the molar value.
# label = 1 (yes) if pEC50 >= 8 else 0 (no)

{"columns": ["Molecule", "Assigned Label"],
 "data": [
  ["COC(=O)C1CN(Cc2ccc(-c3cnc(-c4ccc(OC(C)C)c(C(F)(F)F)c4)[se]3)cc2)C1", "1 (yes)"],
  ["CC(C)(C)OC(=O)C1CN(Cc2ccc(-c3cnc(-c4ccc(C(C)(C)C)cc4)[se]3)cc2)C1", "0 (no)"],
  ["COC(=O)C1CN(Cc2ccc(-c3cnc(-c4ccc(OC(C)C)c(Cl)c4)[se]3)cc2)C1", "1 (yes)"],
  ["CCOC(=O)C1CN(Cc2ccc(-c3cnc(-c4ccc(OC(C)C)cc4)[se]3)cc2)C1", "1 (yes)"],
  ["CC(C)Oc1ccc(-c2ncc(-c3ccc(CN4CC(C(=O)O)C4)cc3)[se]2)cc1C#N", "1 (yes)"],
  ["COC(=O)C1CN(Cc2ccc(-c3cnc(-c4ccc(OC(C)C)c(C#N)c4)[se]3)cc2)C1", "1 (yes)"],
  ["COC(=O)C1CN(Cc2ccc(-c3cnc(-c4ccc(OC)cc4)[se]3)cc2)C1", "0 (no)"],
  ["CCOC(=O)C1CN(Cc2ccc(-c3cnc(-c4ccc(C(C)(C)C)cc4)[se]3)cc2)C1", "0 (no)"],
  ["COC(=O)C1CCN(Cc2ccc(-c3cnc(-c4ccc(OC(C)C)c(Cl)c4)[se]3)cc2)C1 (stereo not shown)", "1 (yes)"],
  ["CCOc1ccc(-c2ncc(-c3ccc(CN4CC(C(=O)OC)C4)cc3)[se]2)cc1Cl", "1 (yes)"],
  ["COC(=O)C1CN(Cc2ccc(-c3ncc(-c4ccc(C(C)(C)C)cc4)[se]3)cc2)C1", "0 (no)"],
  ["CC(C)Oc1ccc(-c2ncc(-c3ccc(CN4CC(C(=O)O)C4)cc3)[se]2)cc1C(F)(F)F", "1 (yes)"],
  ["CC(C)Oc1ccc(-c2ncc(-c3ccc(CN4CC(C(=O)O)C4)cc3)[se]2)cc1", "1 (yes)"],
  ["CCOC(=O)C1CN(Cc2ccc(-c3cnc(-c4ccc(OC(C)C)c(C(F)(F)F)c4)[se]3)cc2)C1", "1 (yes)"]
]}
